System: endo-α-GalNAcase
ASSAY_OVERVIEW: Effects of inhibitors (additives) on enzyme activity
Type: biochemical, Alcaligenes sp. F-1906
CONDITION_PARAMETERS: additive concentration 2.5 mM; no additive = 100
Procedure: The activity of this enzyme can be measured with asialofetuin as a substrate. The enzyme reaction is carried out in citrate buffer, pH 4.5, at 37° C., and then stopped by adding a borate buffer, pH 9.1, to this reaction mixture. The Gal β1→3GalNAc produced is measured by the method of Reissig. One unit of enzyme activity is defined as the amount of enzyme that releases 1 μmol of Gal β1,→3GalNAc in one minute. The enzyme was tested for the effects of various kinds of substances.
Rule: Relative activity under 90% gives criterion not met, otherwise criterion met.

SMILES_RECORD	LABEL_VALUE
[Mn+2]	criterion not met

INPUT: Answer whether Relative activity of [Ca+2] is greater than or equal to 90%.
OUTPUT: criterion met

INPUT: Item: [Cu+2]
OUTPUT: criterion not met

INPUT: Would you mind doing O=C(O)CN(CCN(CC(=O)O)CC(=O)O)CC(=O)O as well?
OUTPUT: criterion met
